Reference source: BindingDB's records for doi:10.1021/jm050532w

measurement target: Oxysterols receptor LXR-alpha (Homo sapiens)
Sequence (Q13133 whole entry): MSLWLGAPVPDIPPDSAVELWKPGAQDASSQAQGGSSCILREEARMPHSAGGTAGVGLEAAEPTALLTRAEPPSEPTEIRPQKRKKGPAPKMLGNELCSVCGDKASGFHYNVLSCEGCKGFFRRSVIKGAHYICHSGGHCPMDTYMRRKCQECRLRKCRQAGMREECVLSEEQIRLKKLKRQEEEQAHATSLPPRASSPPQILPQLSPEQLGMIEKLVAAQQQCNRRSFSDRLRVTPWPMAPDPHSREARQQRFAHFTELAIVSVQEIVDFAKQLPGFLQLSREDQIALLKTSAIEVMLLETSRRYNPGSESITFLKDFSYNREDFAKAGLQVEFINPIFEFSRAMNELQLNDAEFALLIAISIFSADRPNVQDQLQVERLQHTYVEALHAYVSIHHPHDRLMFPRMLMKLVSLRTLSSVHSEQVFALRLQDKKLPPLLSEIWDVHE
assay info: Cell-Free Ligand Sensing Assay (LiSA)-LXRalpha-SRC1 Assay
test parameters: pH 7.5; 22 °C
pEC50: −log10 of the molar value.
outcome measure: pEC50

compound	measurement target	outcome measure	reported
COc1ccc(N=C2C(=O)N(c3ccccc3)C(=O)C2c2ccccc2)cc1 (stereo unspecified)	Oxysterols receptor LXR-alpha (Homo sapiens)	pEC50	6.56

====

measurement target: UniProt:P55055
Sequence (P55055 whole entry): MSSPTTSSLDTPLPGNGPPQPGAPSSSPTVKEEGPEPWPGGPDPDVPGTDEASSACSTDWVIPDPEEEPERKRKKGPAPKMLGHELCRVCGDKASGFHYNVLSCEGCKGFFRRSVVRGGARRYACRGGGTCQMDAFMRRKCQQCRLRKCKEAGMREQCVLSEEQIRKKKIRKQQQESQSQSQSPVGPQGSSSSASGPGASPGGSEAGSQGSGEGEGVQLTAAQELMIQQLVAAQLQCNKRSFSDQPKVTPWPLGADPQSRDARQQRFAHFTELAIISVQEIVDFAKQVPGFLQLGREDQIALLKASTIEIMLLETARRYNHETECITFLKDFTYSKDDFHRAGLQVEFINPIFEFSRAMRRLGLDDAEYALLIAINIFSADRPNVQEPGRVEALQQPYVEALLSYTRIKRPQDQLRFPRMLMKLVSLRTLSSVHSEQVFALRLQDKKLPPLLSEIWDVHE
assay info: Cell-Free Ligand Sensing Assay (LiSA)-LXRbeta-SRC1 Assay
test parameters: pH 7.5; 22 °C
outcome measure: EC50 (µM)

compound	reported
COc1ccc(N=C2C(=O)N(c3ccccc3)C(=O)C2c2ccccc2)cc1 (stereo unspecified)	0.26
